This collection of values is drawn from PubChem BioAssay AID228.

Measured T/C, listed per entry for reference.
Tested on: BDF1 mice, Friend leukemia sc, tumor weight T/C
Assay: NCI In Vivo Anticancer Drug Screen. Data for tumor model Friend Virus Leukemia (Solid) (subcutaneous) in B6D2F1 (BDF1) mice
Details: endpoint: mean tumor weight; dose: 9.0 mg/kg/injection; schedule: Q01DX011 (ip); vehicle: carboxymethylcellulose (CMC); higher = larger tumour
Results filed as inconclusive are left out.

The following compounds have reported results that may help.
c1ccc(CNc2ncnc3[nH]ncc23)cc1: 117 % of control
NC1(C(=O)O)CCCC1: 89 % of control
COS(C)(=O)=O: 167 % of control

Turning to the following compound.
The compound N=[N+]=CC(=O)OCC(N)C(=O)O (centres undefined) on BDF1 mice, Friend leukemia sc, tumor weight T/C: T/C was 33 % of control
